System: 496974-208-R-J2-PDC complex spheroids, growth % test/control
assay.info: Anticancer human tumor 496974-208-R-J2-PDC patient-derived pancreatic carcinoma cell line growth inhibition [CLK]
experimental.parameters: curve of first compound; second compound 0.0316 µM
reported.property: pIC50
In simple prose, pIC50 is minus the logarithm base ten of a concentration in moles per litre.

Enquiry: # query: pIC50 of entry O=c1[nH]cc(F)c(=O)[nH]1 + CN1CCN(c2cc(C(=O)Nc3cc4cc(-c5cnn(C)c5)ccc4cn3)ccn2)CC1
Return: 5.23

Enquiry: # query: pIC50 of entry CC1(C)CCC(CN2CCN(c3ccc(C(=O)NS(=O)(=O)c4ccc(NCC5CCOCC5)c([N+](=O)[O-])c4)c(Oc4cnc5[nH]ccc5c4)c3)CC2)=C(c2ccc(Cl)cc2)C1 + CNC(=O)c1ccc(Nc2nc(OC3CCCC3)c3c(-c4ccc5nc(C)oc5c4)c[nH]c3n2)c(OC)c1
Return: 5.08

Enquiry: # query: pIC50 of entry Nc1ccn(C2OC(CO)C(O)C2(F)F)c(=O)n1 (stereo unspecified) + CN1CCN(c2cc(C(=O)Nc3cc4cc(-c5cnn(C)c5)ccc4cn3)ccn2)CC1
Return: 6.02

Enquiry: # query: pIC50 of entry Nc1ccccc1NC(=O)c1ccc(CNC(=O)OCc2cccnc2)cc1 + CNC(=O)c1ccc(Nc2nc(OC3CCCC3)c3c(-c4ccc5nc(C)oc5c4)c[nH]c3n2)c(OC)c1
Return: 5.34

# evaluate next
Enquiry: # query: pIC50 of entry Nc1ccccc1NC(=O)c1ccc(CNC(=O)OCc2cccnc2)cc1 + CN1CCN(c2cc(C(=O)Nc3cc4cc(-c5cnn(C)c5)ccc4cn3)ccn2)CC1
Return: 5.37

====

System: 496974-208-R-J2-PDC complex spheroids, growth % test/control
assay.info: Anticancer human tumor 496974-208-R-J2-PDC cell line growth inhibition [CLK];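 also: spheroids exposed to the drugs for 7 days before readout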;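 as to viability, T/C: 100% = DMSO vehicle control wells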
experimental.parameters: second compound 0.1 µM; first compound 0.1 µM; stronger effect = lower value
Catalogue of viability, T/C readings, one per entry.
Express the result in % but write the number alone.

Use the examples below as a reference point.
Enquiry: Write down the reported viability, T/C of CC1(C)CCC(CN2CCN(c3ccc(C(=O)NS(=O)(=O)c4ccc(NCC5CCOCC5)c([N+](=O)[O-])c4)c(Oc4cnc5[nH]ccc5c4)c3)CC2)=C(c2ccc(Cl)cc2)C1 + CNC(=O)c1ccc(Nc2nc(OC3CCCC3)c3c(-c4ccc5nc(C)oc5c4)c[nH]c3n2)c(OC)c1 , test system: 496974-208-R-J2-PDC complex spheroids, growth % test/control.
Return: 73.3

Enquiry: Write down the reported viability, T/C of C=C(F)C(=O)N1CCN(c2nc(OCC3CCCN3C)nc3c2CCN(c2cccc4cccc(Cl)c24)C3)CC1CC#N (stereo not drawn) + CN1CCN(c2cc(C(=O)Nc3cc4cc(-c5cnn(C)c5)ccc4cn3)ccn2)CC1 , test system: 496974-208-R-J2-PDC complex spheroids, growth % test/control.
Return: 88.8

***
Enquiry: Write down the reported viability, T/C of Nc1ccccc1NC(=O)c1ccc(CNC(=O)OCc2cccnc2)cc1 + CN1CCN(c2cc(C(=O)Nc3cc4cc(-c5cnn(C)c5)ccc4cn3)ccn2)CC1 , test system: 496974-208-R-J2-PDC complex spheroids, growth % test/control.
Return: 78.9

====

Tested on: 496974-208-R-J2-PDC complex spheroids, growth % test/control
assay.info: Anticancer human tumor 496974-208-R-J2-PDC cell line growth inhibition [CLK];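 also: spheroids exposed to the drugs for 7 days before readout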;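 as to viability, T/C: 100% = DMSO vehicle control wells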
experimental.parameters: second compound 10 µM; first compound 10 µM; stronger effect = lower value
Please note: viability, T/C exactly at 3% is class 0. Only values below 3% get class 1.

Enquiry: Identify whether the compound CC(=O)O[C@H]1C(=O)[C@@]2(C)[C@H]([C@H](OC(=O)c3ccccc3)[C@]3(O)C[C@H](OC(=O)[C@H](O)[C@@H](NC(=O)c4ccccc4)c4ccccc4)C(C)=C1C3(C)C)[C@]1(OC(C)=O)CO[C@@H]1C[C@@H]2O + CN1CCN(c2cc(C(=O)Nc3cc4cc(-c5cnn(C)c5)ccc4cn3)ccn2)CC1 records viability, T/C below 3%.
Return: class 1

***
Enquiry: Identify whether the compound CC(CO)NC(=O)c1cc(-c2ccc(Cl)cc2)nn(-c2cnn(C)c2)c1=O (stereo not given) + CN1CCN(c2cc(C(=O)Nc3cc4cc(-c5cnn(C)c5)ccc4cn3)ccn2)CC1 records viability, T/C below 3%.
Return: class 1

Enquiry: Identify whether the compound CC1COCCN1c1cc(C2(S(C)(=N)=O)CC2)nc(-c2ccnc3[nH]ccc23)n1 (stereo not given) + CN1CCN(c2cc(C(=O)Nc3cc4cc(-c5cnn(C)c5)ccc4cn3)ccn2)CC1 records viability, T/C below 3%.
Return: class 1

Enquiry: Identify whether the compound O=c1[nH]cc(F)c(=O)[nH]1 + CN1CCN(c2cc(C(=O)Nc3cc4cc(-c5cnn(C)c5)ccc4cn3)ccn2)CC1 records viability, T/C below 3%.
Return: class 1

Enquiry: Identify whether the compound CC(Nc1ccc2c(c1)OCCn1cc(N3C(=O)OCC3C(F)F)nc1-2)C(N)=O (stereo not given) + CNC(=O)c1ccc(Nc2nc(OC3CCCC3)c3c(-c4ccc5nc(C)oc5c4)c[nH]c3n2)c(OC)c1 records viability, T/C below 3%.
Return: class 0

Enquiry: Identify whether the compound Nc1ccccc1NC(=O)c1ccc(CNC(=O)OCc2cccnc2)cc1 + CNC(=O)c1ccc(Nc2nc(OC3CCCC3)c3c(-c4ccc5nc(C)oc5c4)c[nH]c3n2)c(OC)c1 records viability, T/C below 3%.
Return: class 0

Enquiry: Identify whether the compound COc1cccc2c1C(=O)c1c(O)c3c(c(O)c1C2=O)CC(O)(C(=O)CO)CC3OC1CC(N)C(O)C(C)O1 (stereo not given) + CNC(=O)c1ccc(Nc2nc(OC3CCCC3)c3c(-c4ccc5nc(C)oc5c4)c[nH]c3n2)c(OC)c1 records viability, T/C below 3%.
Return: class 1

====

System: 496974-208-R-J2-PDC complex spheroids, growth % test/control
assay.info: Anticancer human tumor 496974-208-R-J2-PDC cell line growth inhibition [CLK];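 also: spheroids exposed to the drugs for 7 days before readout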;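 as to viability, T/C: 100% = DMSO vehicle control wells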
experimental.parameters: second compound 0.0316 µM; first compound 3.16 µM; stronger effect = lower value
Please note: viability, T/C exactly at 90% is No. Only values below 90% get Yes.

Enquiry: Identify whether the molecule C#Cc1c(F)ccc2cc(O)cc(-c3ncc4c(N5CC6CCC(C5)N6)nc(OCC56CCCN5CC(F)C6)nc4c3F)c12 (stereo not given) + CN1CCN(c2cc(C(=O)Nc3cc4cc(-c5cnn(C)c5)ccc4cn3)ccn2)CC1 records viability, T/C below 90%.
Return: Yes

Enquiry: Identify whether the molecule Nc1ccn(C2OC(CO)C(O)C2(F)F)c(=O)n1 (stereo not given) + CN1CCN(c2cc(C(=O)Nc3cc4cc(-c5cnn(C)c5)ccc4cn3)ccn2)CC1 records viability, T/C below 90%.
Return: Yes

API: the following record is the query input.
Enquiry: Identify whether the molecule C=CC(=O)N1CCN(c2nc(=O)n(-c3c(C)ccnc3C(C)C)c3nc(-c4c(O)cccc4F)c(F)cc23)C(C)C1 (stereo not given) + CNC(=O)c1ccc(Nc2nc(OC3CCCC3)c3c(-c4ccc5nc(C)oc5c4)c[nH]c3n2)c(OC)c1 records viability, T/C below 90%.
Return: No

====

System: 496974-208-R-J2-PDC complex spheroids, growth % test/control
assay.info: Anticancer human tumor 496974-208-R-J2-PDC cell line growth inhibition [CLK];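 also: spheroids exposed to the drugs for 7 days before readout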;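 as to viability, T/C: 100% = DMSO vehicle control wells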
experimental.parameters: second compound 0.316 µM; first compound 0.316 µM; stronger effect = lower value
reported.property: viability, T/C (%)
Express the result in % but write the number alone.

Use the examples below as a reference point.
Enquiry: # query: viability, T/C of entry COc1ccc([C@@H](O)c2cc(-c3ncnc4cc(N5CCOCC5)ccc34)c(F)cc2Cl)nn1 + CN1CCN(c2cc(C(=O)Nc3cc4cc(-c5cnn(C)c5)ccc4cn3)ccn2)CC1
Return: 5.59

Enquiry: # query: viability, T/C of entry Nc1ccn(C2OC(CO)C(O)C2(F)F)c(=O)n1 (stereo not drawn) + CN1CCN(c2cc(C(=O)Nc3cc4cc(-c5cnn(C)c5)ccc4cn3)ccn2)CC1
Return: 6.71

# evaluate next
Enquiry: # query: viability, T/C of entry O=C(c1cc(Cc2n[nH]c(=O)c3ccccc23)ccc1F)N1CCN(C(=O)C2CC2)CC1 + CN1CCN(c2cc(C(=O)Nc3cc4cc(-c5cnn(C)c5)ccc4cn3)ccn2)CC1
Return: 5.38

====

Tested on: 496974-208-R-J2-PDC complex spheroids, growth % test/control
assay.info: Anticancer human tumor 496974-208-R-J2-PDC cell line growth inhibition [CLK];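 also: spheroids exposed to the drugs for 7 days before readout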
experimental.parameters: curve of first compound; second compound 0.0316 µM
pIC50: −log10 of the molar value.
Binary call on pIC50: condition met from 7 upward, condition not met beneath that.

Below, 2 compounds whose answers are already recorded.
Enquiry: Is pIC50 for CC(C)CC(NC(=O)C(Cc1ccccc1)NC(=O)c1cnccn1)B(O)O (stereo not given) + CN1CCN(c2cc(C(=O)Nc3cc4cc(-c5cnn(C)c5)ccc4cn3)ccn2)CC1 at or above 7?
Return: condition met

Enquiry: Is pIC50 for CC1COCCN1c1cc(C2(S(C)(=N)=O)CC2)nc(-c2ccnc3[nH]ccc23)n1 (stereo not given) + CN1CCN(c2cc(C(=O)Nc3cc4cc(-c5cnn(C)c5)ccc4cn3)ccn2)CC1 at or above 7?
Return: condition not met

***
Enquiry: Is pIC50 for C=CC(=O)Nc1cc(Nc2nccc(-c3cn(C)c4ccccc34)n2)c(OC)cc1N(C)CCN(C)C + CNC(=O)c1ccc(Nc2nc(OC3CCCC3)c3c(-c4ccc5nc(C)oc5c4)c[nH]c3n2)c(OC)c1 at or above 7?
Return: condition not met

Enquiry: Is pIC50 for CC(=O)O[C@H]1C(=O)[C@@]2(C)[C@H]([C@H](OC(=O)c3ccccc3)[C@]3(O)C[C@H](OC(=O)[C@H](O)[C@@H](NC(=O)c4ccccc4)c4ccccc4)C(C)=C1C3(C)C)[C@]1(OC(C)=O)CO[C@@H]1C[C@@H]2O + CN1CCN(c2cc(C(=O)Nc3cc4cc(-c5cnn(C)c5)ccc4cn3)ccn2)CC1 at or above 7?
Return: condition met

Enquiry: Is pIC50 for CC1COCCN1c1cc(C2(S(C)(=N)=O)CC2)nc(-c2ccnc3[nH]ccc23)n1 (stereo not given) + CNC(=O)c1ccc(Nc2nc(OC3CCCC3)c3c(-c4ccc5nc(C)oc5c4)c[nH]c3n2)c(OC)c1 at or above 7?
Return: condition not met

Enquiry: Is pIC50 for COC1C=CCC(C)C(C)S(=O)(=O)NC(=O)c2ccc3c(c2)N(CC2CCC21)CC1(CCCc2cc(Cl)ccc21)CO3 (stereo not given) + CNC(=O)c1ccc(Nc2nc(OC3CCCC3)c3c(-c4ccc5nc(C)oc5c4)c[nH]c3n2)c(OC)c1 at or above 7?
Return: condition not met

Enquiry: Is pIC50 for CCc1c2c(nc3ccc(O)cc13)-c1cc3c(c(=O)n1C2)COC(=O)[C@]3(O)CC + CN1CCN(c2cc(C(=O)Nc3cc4cc(-c5cnn(C)c5)ccc4cn3)ccn2)CC1 at or above 7?
Return: condition met

Enquiry: Is pIC50 for COc1ccc([C@@H](O)c2cc(-c3ncnc4cc(N5CCOCC5)ccc34)c(F)cc2Cl)nn1 + CN1CCN(c2cc(C(=O)Nc3cc4cc(-c5cnn(C)c5)ccc4cn3)ccn2)CC1 at or above 7?
Return: condition not met

Enquiry: Is pIC50 for Cn1ncnc1[C@H]1c2n[nH]c(=O)c3cc(F)cc(c23)N[C@@H]1c1ccc(F)cc1 + CNC(=O)c1ccc(Nc2nc(OC3CCCC3)c3c(-c4ccc5nc(C)oc5c4)c[nH]c3n2)c(OC)c1 at or above 7?
Return: condition not met
